Reference for the values: patent US20150065466A1

Molecular target: PfDXR (Plasmodium falciparum, UniProt Q8IKG4)
Sequence (Q8IKG4 75-488): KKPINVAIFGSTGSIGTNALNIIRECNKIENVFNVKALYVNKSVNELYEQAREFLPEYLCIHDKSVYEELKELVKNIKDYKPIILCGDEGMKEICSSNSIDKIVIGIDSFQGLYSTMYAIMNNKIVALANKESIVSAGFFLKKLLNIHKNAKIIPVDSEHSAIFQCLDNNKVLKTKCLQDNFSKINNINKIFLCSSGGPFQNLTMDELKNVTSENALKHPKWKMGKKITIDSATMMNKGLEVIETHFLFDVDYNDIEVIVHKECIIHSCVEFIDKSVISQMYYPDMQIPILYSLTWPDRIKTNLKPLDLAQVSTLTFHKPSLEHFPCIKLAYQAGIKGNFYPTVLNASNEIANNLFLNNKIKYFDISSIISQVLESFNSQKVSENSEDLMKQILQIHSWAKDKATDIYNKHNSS
Assay: recombinant PfDXR enzyme inhibition
Type: biochemical, P. falciparum
assayEndpoint: Ki (nM)
Return type: number; implicit unit nM.

Prompt line: For O=CN(O)CCC(c1cccnc1)P(=O)(O)O (stereo not shown) , what is its reported Ki?
Response line: 13

* * *

Target: PfDXR (Plasmodium falciparum, UniProt Q8IKG4)
Assay: recombinant PfDXR enzyme inhibition
Assay type: biochemical, P. falciparum
Conditions: listed as 5a; read-out: Ki against PfDXR
assayEndpoint: pKi
Remember, pKi is on a log scale: it is -log10 of the molar concentration.

Prompt line: For CC(=O)N(O)CCC(c1cccnc1)P(=O)(O)O (stereo not shown) , what is its reported pKi?
Response line: 8.72

* * *

Biological target: UniProt Q8IKG4
Experiment: recombinant PfDXR enzyme inhibition
Type: biochemical, P. falciparum
Conditions: Table 1; read-out: Enzyme Ki PfDXR
assayEndpoint: Ki

O=CN(O)CCC(c1ccncc1)P(=O)(O)O (centres unmarked) [SYC-467]
8.9 nM

Prompt line: For CC(=O)N(O)CCC(c1ccncc1)P(=O)(O)O (centres unmarked) [SYC-409] , what is its reported Ki?
Response line: 13 nM

* * *

Target: EcDXR (Escherichia coli)
Sequence (P45568 whole entry): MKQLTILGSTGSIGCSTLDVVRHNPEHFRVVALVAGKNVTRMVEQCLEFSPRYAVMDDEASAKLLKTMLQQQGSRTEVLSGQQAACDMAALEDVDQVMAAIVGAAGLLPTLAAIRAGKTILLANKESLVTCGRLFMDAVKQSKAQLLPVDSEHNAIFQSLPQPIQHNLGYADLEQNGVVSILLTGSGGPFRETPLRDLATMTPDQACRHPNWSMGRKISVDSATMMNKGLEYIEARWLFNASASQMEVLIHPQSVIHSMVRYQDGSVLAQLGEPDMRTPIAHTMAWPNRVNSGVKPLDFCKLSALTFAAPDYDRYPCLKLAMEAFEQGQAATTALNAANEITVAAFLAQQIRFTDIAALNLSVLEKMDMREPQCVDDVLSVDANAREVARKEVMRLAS
Assay: recombinant EcDXR enzyme inhibition
Assay type: biochemical, E. coli
Conditions: Table 1; read-out: Enzyme Ki EcDXR
assayEndpoint: Ki

Prompt line: What reported Ki corresponds to O=CN(O)CCC(c1cccnc1)P(=O)(O)O (stereo not shown) on EcDXR (Escherichia coli)?
Response line: 87 nM

* * *

Biological target: TgDXR (Toxoplasma gondii)
Format: biochemical, T. gondii
Settings: 100 nM TgDXR, 4 mM MgCl2, 100 μM DXP, pH 7.6; read-out: Ki TgDXR
Hi! Could you tag entries with Ki below 80 nM as TRUE, and those at or above as FALSE? Much appreciated.

Consider the worked cases shown below.
CC(=O)N(O)CCC(c1ccc(Cl)c(Cl)c1)P(=O)(O)O (stereo not shown)
FALSE
CC(=O)N(O)CCC(c1ccncc1)P(=O)(O)O (stereo not shown)
FALSE
CC(=O)N(O)CCC(c1cccnc1)P(=O)(O)O (stereo not shown)
FALSE
O=P(O)(O)Cc1ccccn1
FALSE
CC(=O)N(O)CCCP(=O)(O)O
TRUE

Please examine the following record next.
Prompt line: Find out if reported Ki for O=CN(O)CCC(c1ccc(Cl)c(Cl)c1)P(=O)(O)O (stereo not shown) is less than 80 nM
Response line: TRUE

* * *

Target: TgDXR (Toxoplasma gondii, UniProt S8ESX0)
Sequence (S8ESX0 entry or part of it): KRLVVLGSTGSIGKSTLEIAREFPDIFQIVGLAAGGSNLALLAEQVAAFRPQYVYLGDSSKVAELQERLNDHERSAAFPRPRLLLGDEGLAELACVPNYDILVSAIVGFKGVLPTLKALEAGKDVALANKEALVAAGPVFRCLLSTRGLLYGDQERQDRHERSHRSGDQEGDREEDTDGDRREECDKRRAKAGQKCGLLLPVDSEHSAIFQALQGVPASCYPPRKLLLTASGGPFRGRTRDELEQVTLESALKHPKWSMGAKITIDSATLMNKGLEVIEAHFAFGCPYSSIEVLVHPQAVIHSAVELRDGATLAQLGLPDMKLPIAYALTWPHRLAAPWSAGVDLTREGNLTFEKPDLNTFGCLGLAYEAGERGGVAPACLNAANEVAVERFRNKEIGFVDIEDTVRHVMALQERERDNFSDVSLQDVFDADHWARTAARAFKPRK
Assay type: biochemical, T. gondii
Settings: read-out: Ki against TgDXR
Reported Ki is given for each of the following compounds.
Return type: number; implicit unit nM.

O=CN(O)CCC(c1cccnc1)P(=O)(O)O (centres unmarked) [SYC-466]
55
O=CN(O)CCC(c1ccc(Cl)c(Cl)c1)P(=O)(O)O (centres unmarked) [Compound 10]
77
O=CN(O)CCC(c1ccncc1)P(=O)(O)O (centres unmarked) [SYC-467]
79
O=CN(O)CCCP(=O)(O)O [Fosmidomycin]
90

Shift focus to the following entry.
Prompt line: For CC(=O)N(O)CCCP(=O)(O)O [FR900098] , what is its reported Ki?
Response line: 48
